Test: Cell Titer-fluor cell activity assay in HCV-1b replicon cells (CC50)
Format: cell-based
Recorded CC50 at 3 days, one value per entry.
readout: CC50 at 3 days

>>> experimental_result("COC(=O)N[C@H](C(=O)N1CCC[C@H]1c1ncc(-c2ccc(-c3ccc(-c4cnc(C5C6CCC(C6)[C@@H]5C(=O)N(NC(=O)OC)C5CCOCC5)[nH]4)cc3)cc2)[nH]1)C(C)C (some centres unmarked) [AA_158]")
"> 1 nM"
>>> experimental_result("COC(=O)N[C@H](C(=O)N1CCC[C@H]1c1[nH]c(-c2ccc(-c3ccc4cc(-c5cnc(C6CCCC[C@@H]6C(=O)N(NC(=O)OC)C(C)C)[nH]5)ccc4c3)cc2)c2c1CCC2)C(C)C (some centres unmarked) [AA_094]")
"> 10 nM"
>>> experimental_result("COC(=O)N[C@H](C(=O)N1CCC[C@H]1c1[nH]c(-c2ccc(-c3ccc(-c4[nH]c([C@@H]5CCCN5C(=O)[C@@H](NC(=O)OC)C(C)C)c5c4CCC5)cc3)cc2)c2c1CCC2)C(C)C [AG_026_A]")
"> 10 nM"
>>> experimental_result("COC(=O)N[C@H](C(=O)N1CCC[C@H]1c1ncc(-c2ccc(-c3ccc(-c4cnc([C@H]5C6CCC(C6)[C@@H]5C(=O)NCc5cccnc5C5CC5)[nH]4)cc3)cc2)[nH]1)C(C)C (some centres unmarked) [AA_234_A]")
"> 1 nM"
>>> experimental_result("COC(=O)N[C@H](C(=O)N1CCC[C@H]1c1ncc(-c2ccc(-c3ccc(-c4cnc([C@@H]5C6CCC(C6)[C@H]5C(=O)NCc5cnccn5)[nH]4)cc3)cc2)[nH]1)C(C)C (some centres unmarked) [AA_206_B]")
"> 1 nM"

---

System: HCV-1b replicon cells
Assay: Cell Titer-fluor cell activity assay in HCV-1b replicon cells (CC50)
Assay type: cell-based
Conditions: 3 days
Protocol: The EC50 and CC50 values of anti-HCV compounds were determined by HCV genotype 1a (HCV-1a) and 1B (HCV-1b) stable transfer replication (replicon) cells. The source of genotype 1a replicon is H77 clones containing K1691R, K2040R and S2204I adaptive mutations. […] 3) suspending cells in each T150 culture flask with 10-15 mL culture medium, absorbing 0.1 mL liquid and diluting 2 times by trypan blue solution as counted. […]
readout: CC50

>>> experimental_result("COC(=O)N[C@H](C(=O)N1CCC[C@H]1c1ncc(-c2ccc(-c3ccc(-c4cnc(C5C6CCC(C6)[C@@H]5C(=O)N[C@H](C)c5cccnc5)[nH]4)cc3)cc2)[nH]1)[C@@H](C)OC (single isomer, unassigned)")
"> 1 nM"
>>> experimental_result("COC(=O)N[C@H](C(=O)N1CCC[C@H]1c1ncc(-c2ccc(-c3ccc(-c4cnc(C5C6CCC(C6)[C@@H]5C(=O)NC(C)c5cnccn5)[nH]4)cc3)cc2)[nH]1)[C@@H](C)OC (single isomer, unassigned)")
"> 1 nM"
>>> experimental_result("COC(=O)N[C@H](C(=O)N1CCC[C@H]1c1ncc(-c2ccc(-c3ccc(-c4[nH]c([C@@H]5CCCN5C(=O)[C@@H](NC(=O)OC)[C@@H](C)OC)c5c4COC5)cc3)cc2)[nH]1)[C@@H](C)OC")
"> 5 nM"
>>> experimental_result("COC(=O)N[C@H](C(=O)N1CCC[C@H]1c1ncc(-c2ccc(-c3ccc(-c4cnc([C@H]5C6CCC(C6)[C@@H]5C(=O)NC(C)c5cccnc5)[nH]4)cc3)cc2)[nH]1)C(C)C (single isomer, unassigned)")
"> 1 nM"

The reported numbers originate from patent US10160771B2.
